# Assay protocol: qHTS for differential inhibitors of proliferation of Plasmodium falciparum line D10 (AID 1877);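 also: parasites grown with compound for 72 h before DNA staining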
# Reported conditions: series mostly up to 28.7 µM
Records with an inconclusive call do not appear. Activity calls are given as the source filed them. Calls follow the shape of the dose curve; as a rule, active = well fitted curve in the direction sought with a large enough effect; inconclusive = small, poorly fitted or top-dose-only effect, or another doubt; inactive = no such curve, though single readings can be large or run the other way.
Labels: Yes (active), No (inactive)

>  <Compound>
CNCCC(Oc1ccccc1OC)c1ccccc1 (stereo not drawn)

>  <Classification>
No

$$$$
>  <Compound>
O=C(O)CP(=O)(O)O

>  <Classification>
No

$$$$
>  <Compound>
Cc1nc2c([nH]1)c(=O)n(C)c(=O)n2Cc1ccco1

>  <Classification>
No

$$$$
>  <Compound>
CCO/C([O-])=N/c1c[n+](N2CCOCC2)no1

>  <Classification>
No

$$$$
>  <Compound>
Cc1cc(C)c(/C=C2\C(=O)Nc3ccccc32)[nH]1

>  <Classification>
No

$$$$
>  <Compound>
C=CCc1ccccc1OCC(O)CNC(C)C (stereo not drawn)

>  <Classification>
Yes

$$$$
>  <Compound>
NC(=O)N1c2ccccc2C=Cc2ccccc21

>  <Classification>
No

$$$$
>  <Compound>
O=C(O)CCCCCCCC(=O)O

>  <Classification>
No

$$$$
>  <Compound>
NC(Cc1ccc(Cl)cc1)C(=O)O (stereo not drawn)

>  <Classification>
No

$$$$
>  <Compound>
CCN(Cc1ccncc1)C(=O)C(CO)c1ccccc1 (stereo not drawn)

>  <Classification>
No

$$$$
>  <Compound>
CN1CCN(C2=Nc3ccccc3Oc3ccc(Cl)cc32)CC1

>  <Classification>
Yes

$$$$
>  <Compound>
CC(=O)OCC1=C(C(=O)O)N2C(=O)[C@@H](NC(=O)Cc3cccs3)[C@H]2SC1

>  <Classification>
No

$$$$
>  <Compound>
CN(C)CCN(Cc1cccs1)c1ccccn1

>  <Classification>
No

$$$$
